Measured pIC50 values are reported for all entries that follow.
target: ATR/ATRIP (Homo sapiens, UniProt Q13535); assay: Inhibition of full-length recombinant human ATR/ATRIP using p53 as substrate incubated for 30 mins in presence of ATP by HTRF assay; type: protein-complex assay
Sequence (Q13535 whole entry): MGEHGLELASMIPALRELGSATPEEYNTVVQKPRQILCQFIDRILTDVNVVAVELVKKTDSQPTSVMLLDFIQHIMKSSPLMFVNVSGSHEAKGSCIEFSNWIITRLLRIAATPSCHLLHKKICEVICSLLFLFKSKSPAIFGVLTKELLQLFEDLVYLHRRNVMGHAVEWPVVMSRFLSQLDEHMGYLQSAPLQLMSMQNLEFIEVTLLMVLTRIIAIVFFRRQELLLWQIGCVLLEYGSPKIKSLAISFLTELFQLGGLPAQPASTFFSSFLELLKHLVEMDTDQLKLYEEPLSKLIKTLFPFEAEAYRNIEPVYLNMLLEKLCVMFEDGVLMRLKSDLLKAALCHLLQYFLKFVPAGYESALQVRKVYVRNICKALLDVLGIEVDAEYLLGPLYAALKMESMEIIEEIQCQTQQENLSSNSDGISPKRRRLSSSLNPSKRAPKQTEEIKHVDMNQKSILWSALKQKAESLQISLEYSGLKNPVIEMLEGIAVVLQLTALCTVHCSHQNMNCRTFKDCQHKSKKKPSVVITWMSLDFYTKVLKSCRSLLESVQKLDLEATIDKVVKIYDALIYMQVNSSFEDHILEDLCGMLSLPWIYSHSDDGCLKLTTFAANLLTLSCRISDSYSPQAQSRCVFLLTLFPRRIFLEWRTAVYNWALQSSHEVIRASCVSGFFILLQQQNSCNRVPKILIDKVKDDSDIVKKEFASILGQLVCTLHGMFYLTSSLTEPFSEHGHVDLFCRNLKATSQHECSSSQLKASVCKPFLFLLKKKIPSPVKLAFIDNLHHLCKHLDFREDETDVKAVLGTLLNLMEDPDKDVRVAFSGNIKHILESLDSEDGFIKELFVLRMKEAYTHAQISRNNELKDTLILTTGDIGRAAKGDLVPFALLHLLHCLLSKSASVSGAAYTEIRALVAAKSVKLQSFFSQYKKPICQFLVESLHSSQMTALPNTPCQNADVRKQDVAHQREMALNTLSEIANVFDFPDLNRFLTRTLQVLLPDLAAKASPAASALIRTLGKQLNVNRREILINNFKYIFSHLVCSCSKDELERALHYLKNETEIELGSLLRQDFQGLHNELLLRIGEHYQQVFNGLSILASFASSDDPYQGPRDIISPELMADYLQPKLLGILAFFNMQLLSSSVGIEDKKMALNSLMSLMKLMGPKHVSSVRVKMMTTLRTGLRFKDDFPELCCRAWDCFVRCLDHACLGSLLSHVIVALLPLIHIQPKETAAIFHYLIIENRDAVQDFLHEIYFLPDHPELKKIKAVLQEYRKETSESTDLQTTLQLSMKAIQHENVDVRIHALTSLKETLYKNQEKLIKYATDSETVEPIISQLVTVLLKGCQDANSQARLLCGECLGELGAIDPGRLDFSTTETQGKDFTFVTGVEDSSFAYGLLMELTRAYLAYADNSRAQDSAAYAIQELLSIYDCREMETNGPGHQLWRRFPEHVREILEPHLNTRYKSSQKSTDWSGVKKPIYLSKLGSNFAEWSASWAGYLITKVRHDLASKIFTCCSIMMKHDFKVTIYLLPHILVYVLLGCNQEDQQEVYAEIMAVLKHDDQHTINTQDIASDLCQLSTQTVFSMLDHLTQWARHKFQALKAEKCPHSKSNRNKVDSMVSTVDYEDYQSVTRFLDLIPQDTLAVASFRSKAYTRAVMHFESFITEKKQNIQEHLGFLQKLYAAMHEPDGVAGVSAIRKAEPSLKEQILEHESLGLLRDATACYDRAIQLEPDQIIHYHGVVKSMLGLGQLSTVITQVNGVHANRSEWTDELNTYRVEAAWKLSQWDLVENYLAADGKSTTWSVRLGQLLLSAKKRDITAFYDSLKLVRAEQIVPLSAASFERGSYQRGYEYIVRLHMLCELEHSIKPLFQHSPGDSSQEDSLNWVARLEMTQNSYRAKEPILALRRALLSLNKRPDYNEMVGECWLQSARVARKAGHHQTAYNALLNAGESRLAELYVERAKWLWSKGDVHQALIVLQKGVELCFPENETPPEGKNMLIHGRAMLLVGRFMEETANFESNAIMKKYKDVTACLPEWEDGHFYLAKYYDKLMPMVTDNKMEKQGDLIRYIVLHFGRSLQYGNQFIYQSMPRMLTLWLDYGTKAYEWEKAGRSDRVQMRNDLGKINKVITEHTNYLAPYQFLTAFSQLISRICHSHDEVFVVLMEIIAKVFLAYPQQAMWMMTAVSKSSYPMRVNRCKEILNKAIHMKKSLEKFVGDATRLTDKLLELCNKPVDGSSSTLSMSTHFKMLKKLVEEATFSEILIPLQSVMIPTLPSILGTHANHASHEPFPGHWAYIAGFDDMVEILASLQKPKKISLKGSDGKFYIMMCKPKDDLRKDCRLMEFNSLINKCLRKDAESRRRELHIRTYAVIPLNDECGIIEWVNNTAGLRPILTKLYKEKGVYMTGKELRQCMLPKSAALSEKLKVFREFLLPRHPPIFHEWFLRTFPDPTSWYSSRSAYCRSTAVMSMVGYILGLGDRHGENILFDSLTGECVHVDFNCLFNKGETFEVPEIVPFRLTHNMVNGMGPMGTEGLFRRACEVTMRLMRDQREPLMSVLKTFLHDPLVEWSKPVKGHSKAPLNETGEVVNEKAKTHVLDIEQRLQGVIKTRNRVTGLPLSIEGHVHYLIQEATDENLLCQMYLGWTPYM
Sequence (Q8WXE1 whole entry, further chain): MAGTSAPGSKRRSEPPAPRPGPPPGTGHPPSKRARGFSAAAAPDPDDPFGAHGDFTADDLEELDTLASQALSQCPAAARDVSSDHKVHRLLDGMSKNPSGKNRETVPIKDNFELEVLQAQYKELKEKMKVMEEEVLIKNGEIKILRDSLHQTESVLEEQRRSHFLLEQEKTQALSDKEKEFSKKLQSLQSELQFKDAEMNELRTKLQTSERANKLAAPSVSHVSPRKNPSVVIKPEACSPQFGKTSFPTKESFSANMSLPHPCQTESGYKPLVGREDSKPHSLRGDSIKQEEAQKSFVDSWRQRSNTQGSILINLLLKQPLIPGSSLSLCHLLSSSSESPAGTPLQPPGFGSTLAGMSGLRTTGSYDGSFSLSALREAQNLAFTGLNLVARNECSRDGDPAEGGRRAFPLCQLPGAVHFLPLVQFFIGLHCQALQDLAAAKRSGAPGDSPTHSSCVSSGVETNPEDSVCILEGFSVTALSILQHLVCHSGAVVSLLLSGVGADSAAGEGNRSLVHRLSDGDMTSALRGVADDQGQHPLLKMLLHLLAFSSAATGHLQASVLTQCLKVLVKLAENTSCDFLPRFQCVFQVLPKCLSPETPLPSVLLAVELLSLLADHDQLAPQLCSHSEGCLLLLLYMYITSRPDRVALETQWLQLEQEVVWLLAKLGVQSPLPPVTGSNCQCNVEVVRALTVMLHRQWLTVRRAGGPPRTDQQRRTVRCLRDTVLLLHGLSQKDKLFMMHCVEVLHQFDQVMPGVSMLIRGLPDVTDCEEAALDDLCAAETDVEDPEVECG
pIC50: −log10 of the molar value.

- line notation: "C[C@@H]1COCCN1c1cc(-c2ccnn2C)nc(-n2c(NCCO)nc3ccc(F)cc32)n1"
  pIC50: "> 6.30"

Proceeding to the next molecule to report its pIC50.
So for `CNc1nc2ccc(F)cc2n1-c1nc(-c2ccnn2C)cc(N2CCOC[C@H]2C)n1` , the logged pIC50 turned out to be > 6.30

###

Measured IC50 values are reported for all entries that follow.
test system: MDA-MB-231; experiment: Inhibition of cell proliferation in human MDA-MB-231 cells incubated for 72 hrs by SRB assay; type: functional, cell-based; conditions: MDA-MB-231, 72 h
Your answer is read as nM, so omit the unit and give the number.

So for `NC(=O)c1cccc2cc(C(=O)N3CCN(c4nc(-c5cnc(N)nc5)nc(N5CCOCC5)n4)CC3)oc12` , the logged IC50 turned out to be 4120

So for `Nc1cc(C(F)(F)F)c(-c2nc(N3CCOCC3)nc(N3CCN(C(=O)c4cc(Cc5n[nH]c(=O)c6ccccc56)ccc4F)CC3)n2)cn1` , the logged IC50 turned out to be 3290

So for `Nc1ncc(-c2nc(N3CCOCC3)nc(N3CCN(C(=O)c4cc(Cc5n[nH]c(=O)c6ccccc56)ccc4F)CC3)n2)cn1` , the logged IC50 turned out to be 1190

So for `Nc1ncc(-c2nc3c(c(N4CCOCC4)n2)CCN(C(=O)c2cc(Cc4n[nH]c(=O)c5ccccc45)ccc2F)C3)cn1` , the logged IC50 turned out to be 443

So for `Nc1cc(C(F)(F)F)c(-c2nc3c(c(N4CCOCC4)n2)CCN(C(=O)c2cc(Cc4n[nH]c(=O)c5ccccc45)ccc2F)C3)cn1` , the logged IC50 turned out to be 155

So for `NC(=O)c1cccc2cc(C(=O)N3CCN(c4nc(-c5cnc(N)cc5C(F)(F)F)nc(N5CCOCC5)n4)CC3)oc12` , the logged IC50 turned out to be 3410

###

assay: Half life in ICR mouse at 3 mg/kg, iv measured for 2 to 1440 mins; type: ADME, organism-based; conditions: in vivo, time 2-1440 min
Measured half-life values are reported for all entries that follow.
Your answer is read as min, so omit the unit and give the number.

- line notation: "C=CCn1c(=O)c2cnc(Nc3ccc(N4C[C@H]5CN(CC6CC6)C[C@H]5C4)cc3)nc2n1-c1ccc(C(C)(C)O)cn1"
  half-life, min: 43.8

Proceeding to the next compound to report its half-life.
So for `C=CCn1c(=O)c2cnc(Nc3ccc(N4C[C@H]5CN(C)C[C@H]5C4)cc3)nc2n1-c1ccc(C(C)(C)O)cn1` , the logged half-life turned out to be 55.2

###

tested on: HCC1937; assay: Inhibition of cell proliferation in human HCC1937 cells incubated for 72 hrs by SRB assay; type: functional, cell-based; conditions: HCC1937, 72 h
measurement label: IC50 (nM)
Your answer is read as nM, so omit the unit and give the number.

Below, 3 compounds whose answers are already recorded.
- line notation: "Nc1cc(C(F)(F)F)c(-c2nc3c(c(N4CCOCC4)n2)CCN(C(=O)c2cc(Cc4n[nH]c(=O)c5ccccc45)ccc2F)C3)cn1"
  measurement: 504
- line notation: "Nc1cc(C(F)(F)F)c(-c2nc(N3CCOCC3)nc(N3CCN(C(=O)c4cc(Cc5n[nH]c(=O)c6ccccc56)ccc4F)CC3)n2)cn1"
  measurement: 264
- line notation: "NC(=O)c1cccc2cc(C(=O)N3CCN(c4nc(-c5cnc(N)cc5C(F)(F)F)nc(N5CCOCC5)n4)CC3)oc12"
  measurement: 166

So for `Nc1ncc(-c2nc(N3CCOCC3)nc(N3CCN(C(=O)c4cc(Cc5n[nH]c(=O)c6ccccc56)ccc4F)CC3)n2)cn1` , the logged IC50 turned out to be 426

So for `NC(=O)c1cccc2cc(C(=O)N3CCN(c4nc(-c5cnc(N)nc5)nc(N5CCOCC5)n4)CC3)oc12` , the logged IC50 turned out to be 61

So for `Nc1ncc(-c2nc3c(c(N4CCOCC4)n2)CCN(C(=O)c2cc(Cc4n[nH]c(=O)c5ccccc45)ccc2F)C3)cn1` , the logged IC50 turned out to be 81

###

assay: Cmax in BALB/c mouse at 2 mg/kg, po by LC-MS/MS analysis; assay type: ADME, organism-based; set-up: dose 2 mg/kg, route po; conditions: in vivo
Measured Cmax values are reported for all entries that follow.
Your answer is read as nM, so omit the unit and give the number.

- line notation: "Cc1cc2ncnn2cc1Nc1ncc2c(n1)n(N1CC3CCC(C1)O3)c(=O)n2C"
  Cmax, nM: 2170

So for `Cc1cc2ncnn2cc1Nc1ncc2c(n1)C1(CCC3(CC3)CC1)C(=O)N2C` , the logged Cmax turned out to be 2170

###

molecular target: ATR/ATRIP (Homo sapiens, UniProt Q13535); assay: Inhibition of full-length human recombinant FLAG-tagged ATR/c-Myc-tagged ATRIP using p53 as substrate incubated for 30 mins in presence of ATP by HTRF assay; type: protein-complex assay
Measured pIC50 values are reported for all entries that follow.
pIC50 (log units): -log10 of the concentration in mol/L.

- line notation: "C[C@@H]1COCCN1c1nc(-c2c(N)ncc3[nH]ccc23)nc2c1OC1CC2(S(C)(=O)=O)C1"
  pIC50: 7.21

Proceeding to the next molecule to report its pIC50.
So for `C[C@@H]1COCCN1c1nc(-c2nncc3[nH]ccc23)nc2c1OC1CC2(S(C)(=O)=O)C1` , the logged pIC50 turned out to be 6.98

###

target: DNA-dependent protein kinase catalytic subunit (Homo sapiens); assay: Inhibition of DNA-PK (unknown origin)
measurement label: pIC50
pIC50 (log units): -log10 of the concentration in mol/L.

So for `COc1ccc(C2(c3cc(-c4ncnc5cc(N6CCOCC6)ccc45)c(F)cc3Cl)CC2)nn1` , the logged pIC50 turned out to be 7.54

###

Measured IC50 values are reported for all entries that follow.
target: UniProt:P09874; experiment: Inhibition of PARP1 (unknown origin) incubated for 1 hr by chemiluminescence assay
Sequence (P09874 whole entry): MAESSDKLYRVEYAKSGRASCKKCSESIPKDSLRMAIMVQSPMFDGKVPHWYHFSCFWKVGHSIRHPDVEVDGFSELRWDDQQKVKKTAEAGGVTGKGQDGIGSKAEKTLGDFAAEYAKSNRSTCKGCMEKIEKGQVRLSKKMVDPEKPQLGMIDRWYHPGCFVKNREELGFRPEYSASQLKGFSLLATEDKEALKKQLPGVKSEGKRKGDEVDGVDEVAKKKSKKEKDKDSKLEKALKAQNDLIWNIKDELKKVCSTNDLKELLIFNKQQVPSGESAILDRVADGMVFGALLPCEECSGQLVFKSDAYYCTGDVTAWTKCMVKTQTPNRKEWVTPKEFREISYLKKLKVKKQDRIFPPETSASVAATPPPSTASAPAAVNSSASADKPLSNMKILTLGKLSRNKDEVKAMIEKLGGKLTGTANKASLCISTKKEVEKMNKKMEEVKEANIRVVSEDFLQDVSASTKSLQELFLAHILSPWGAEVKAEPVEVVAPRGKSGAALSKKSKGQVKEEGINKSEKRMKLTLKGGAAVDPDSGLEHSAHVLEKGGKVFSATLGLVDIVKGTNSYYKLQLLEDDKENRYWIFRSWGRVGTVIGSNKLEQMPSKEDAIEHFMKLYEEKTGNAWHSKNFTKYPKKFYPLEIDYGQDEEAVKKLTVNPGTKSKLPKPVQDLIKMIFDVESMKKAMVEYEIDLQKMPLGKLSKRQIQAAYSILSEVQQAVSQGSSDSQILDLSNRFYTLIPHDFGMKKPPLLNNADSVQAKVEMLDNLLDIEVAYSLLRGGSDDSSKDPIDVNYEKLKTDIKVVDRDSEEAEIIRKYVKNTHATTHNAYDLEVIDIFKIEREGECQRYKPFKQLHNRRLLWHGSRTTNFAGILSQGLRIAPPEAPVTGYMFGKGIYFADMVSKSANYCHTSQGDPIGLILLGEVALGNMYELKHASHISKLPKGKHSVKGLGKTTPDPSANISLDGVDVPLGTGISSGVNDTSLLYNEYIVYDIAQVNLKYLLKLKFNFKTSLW
Your answer is read as pM, so omit the unit and give the number.

Below, 3 compounds whose answers are already recorded.
- line notation: "NC(=O)c1cccc2cc(C(=O)N3CCN(c4nc(-c5cnc(N)nc5)nc(N5CCOCC5)n4)CC3)oc12"
  target or test system: "UniProt:P09874"
  IC50 (pM): 6300
- line notation: "COc1ccc(NC(=O)c2ccc(NC(=O)N3CCN(C(=O)c4cc(Cc5n[nH]c(=O)c6ccccc56)ccc4F)CC3)cc2)cc1"
  target or test system: "UniProt:P09874"
  IC50 (pM): 250
- line notation: "Nc1ncc(-c2nc(N3CCOCC3)nc(N3CCN(C(=O)c4cc(Cc5n[nH]c(=O)c6ccccc56)ccc4F)CC3)n2)cn1"
  target or test system: "UniProt:P09874"
  IC50 (pM): 780

Proceeding to the next compound to report its IC50.
So for `COc1ccccc1NC(=O)c1ccc(NC(=O)N2CCN(C(=O)c3cc(Cc4n[nH]c(=O)c5ccccc45)ccc3F)CC2)cc1` , the logged IC50 turned out to be 590

###

test: AUC (0 to last) in ICR mouse at 10 mg/kg, po measured for 5 to 1440 mins; assay type: ADME, organism-based; design: time 5-1440 min, dose 10 mg/kg, route po; settings: in vivo
measurement label: AUC(0-t) (ng·h/mL)
Your answer is read as ng·h/mL, so omit the unit and give the number.

- line notation: "C=CCn1c(=O)c2cnc(Nc3ccc(N4C[C@H]5CN(CC6CC6)C[C@H]5C4)cc3)nc2n1-c1ccc(C(C)(C)O)cn1"
  measurement label: "AUC(0-t)"
  measurement: 326

So for `C=CCn1c(=O)c2cnc(Nc3ccc(N4C[C@H]5CN(C)C[C@H]5C4)cc3)nc2n1-c1ccc(C(C)(C)O)cn1` , the logged AUC(0-t) turned out to be 409

###

List of IC50 tested on Serine/threonine-protein kinase mTOR (Homo sapiens).

- line notation: "CC(C)n1c(=O)n(C)c2cnc3ccc(-c4ccc(OCCCN(C)C)nc4)cc3c21"
  measurement label: "IC50"
  measurement: "> 10 µM"

Proceeding to the next compound to report its IC50.
IC50 value, target or system Serine/threonine-protein kinase mTOR (Homo sapiens), for `CC(C)n1c(=O)n(C)c2cnc3ccc(-c4ccc(OCCCN5CCCC5)nc4)cc3c21` : > 10 µM

###

Measured pIC50 values are reported for all entries that follow.
system: DU-145; assay: Inhibition of cell proliferation in human DU-145 cells incubated for 4 days by MTT assay; type: functional, cell-based; settings: DU-145, 96 h
pIC50 (log units): -log10 of the concentration in mol/L.

- line notation: "Cc1ccc(-c2cc(N3CCOC[C@H]3C)nn3c(-c4ccn[nH]4)cnc23)cn1"
  target or test system: "DU-145"
  pIC50: 6.04

Proceeding to the next molecule to report its pIC50.
pIC50 value, target or system DU-145, for `C[C@@H]1COCCN1c1cc(-c2ccnn2C)c2ncc(-c3ccn[nH]3)n2n1` : 5.91

Sourced from ChEMBL document CHEMBL5126523
